All values here come from patent US8404708B2.

- STUDY_TARGET: human NK1 receptor (Homo sapiens)
- Sequence (P25103 whole entry): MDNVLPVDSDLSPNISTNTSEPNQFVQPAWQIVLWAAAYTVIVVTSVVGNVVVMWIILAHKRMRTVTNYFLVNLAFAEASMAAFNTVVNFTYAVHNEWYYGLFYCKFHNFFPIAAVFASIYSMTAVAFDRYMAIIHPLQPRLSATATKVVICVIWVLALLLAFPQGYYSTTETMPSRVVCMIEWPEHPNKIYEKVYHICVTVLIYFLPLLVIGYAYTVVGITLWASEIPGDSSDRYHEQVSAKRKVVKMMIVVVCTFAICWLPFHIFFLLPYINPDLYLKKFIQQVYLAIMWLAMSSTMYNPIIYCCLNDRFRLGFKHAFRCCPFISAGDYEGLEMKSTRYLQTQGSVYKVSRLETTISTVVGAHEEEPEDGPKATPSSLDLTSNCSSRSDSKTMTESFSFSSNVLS
- TEST_NAME: NK1 receptor binding, [3H]substance P displacement, CHO cell membranes
- TEST_PARAMETERS: first value of the cell NK1/NK3; read-out: pKi NK1 (converted)
QUANTITY_KIND: Ki (nM)

[[record]]
molecule = "Cc1ccncc1-c1cc(N2CCC[C@H]2CO)ncc1N(C)C(=O)C(C)(C)c1cc(C(F)(F)F)cc(C(F)(F)F)c1 [Example 292]"
recorded_result = 3.63

[[record]]
molecule = "CN(C(=O)C(C)(C)c1cc(C(F)(F)F)cc(C(F)(F)F)c1)c1cnc(N2CCC[C@H]2CO)cc1-c1cc(Cl)ccc1Cl [Example 284]"
recorded_result = 1.48

[[record]]
molecule = "CN(C(=O)C(C)(C)c1cc(C(F)(F)F)cc(C(F)(F)F)c1)c1cnc(N2C[C@H](O)C[C@H]2CO)cc1-c1cccc(Cl)c1Cl [Example 229]"
recorded_result = 2.95

[[record]]
molecule = "Cc1cc(F)ccc1-c1cc(N2CC(=O)C[C@H]2CO)ncc1N(C)C(=O)C(C)(C)c1cc(C(F)(F)F)cc(C(F)(F)F)c1 [Example 296]"
recorded_result = 2.51

[[record]]
molecule = "COc1ccccc1-c1cc(N2CCC[C@H]2CO)ncc1N(C)C(=O)C(C)(C)c1cc(C(F)(F)F)cc(C(F)(F)F)c1 [Example 280]"
recorded_result = 1.82

[[record]]
molecule = "CN(C(=O)C(C)(C)c1cc(C(F)(F)F)cc(C(F)(F)F)c1)c1cnc(N2C[C@H](O)C[C@H]2CO)cc1-c1cc(Cl)ccc1Cl [Example 226]"
recorded_result = 7.76

[[record]]
molecule = "CN(C(=O)C(C)(C)c1cc(C(F)(F)F)cc(C(F)(F)F)c1)c1cnc(N2C[C@H](O)C[C@H]2CO)cc1-c1ccc(F)cc1Cl [Example 221]"
recorded_result = 0.933


* * *

- STUDY_TARGET: Recombinant human NK3 (hNK3) receptor (Homo sapiens)
- Construct: expressed in transfected cells
- Sequence (P29371 1-465): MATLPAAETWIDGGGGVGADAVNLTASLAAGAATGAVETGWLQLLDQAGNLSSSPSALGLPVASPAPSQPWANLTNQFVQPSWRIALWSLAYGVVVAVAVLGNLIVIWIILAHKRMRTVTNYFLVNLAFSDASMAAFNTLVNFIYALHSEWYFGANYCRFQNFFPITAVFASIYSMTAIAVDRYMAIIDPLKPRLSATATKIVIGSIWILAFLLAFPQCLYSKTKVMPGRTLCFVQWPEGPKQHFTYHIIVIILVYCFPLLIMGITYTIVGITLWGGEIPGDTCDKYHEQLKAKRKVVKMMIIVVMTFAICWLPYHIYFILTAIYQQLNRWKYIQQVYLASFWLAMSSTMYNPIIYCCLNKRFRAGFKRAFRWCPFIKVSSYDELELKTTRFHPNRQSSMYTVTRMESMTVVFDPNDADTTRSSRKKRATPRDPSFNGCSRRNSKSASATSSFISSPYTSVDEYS
- TEST_NAME: NK3 receptor binding, [3H]SR142801 displacement, membrane preparations
- TEST_PARAMETERS: second value of the cell NK1/NK3; read-out: pKi NK3 (converted)
Readings of Ki for the listed molecules
QUANTITY_KIND: Ki (nM)

[[record]]
chemical_string = "CN(C(=O)C(C)(C)c1cc(C(F)(F)F)cc(C(F)(F)F)c1)c1cnc(N2C[C@H](O)C[C@H]2CO)cc1-c1ccccc1S(C)(=O)=O"
recorded_result = 7.24

[[record]]
chemical_string = "CN(C(=O)C(C)(C)c1cc(C(F)(F)F)cc(C(F)(F)F)c1)c1cnc(N2CC[C@H](O)[C@H]2CO)cc1-c1cccc(Cl)c1Cl"
recorded_result = 1.38

[[record]]
chemical_string = "Cc1ccncc1-c1cc(N2CCC[C@H]2CO)ncc1N(C)C(=O)C(C)(C)c1cc(C(F)(F)F)cc(C(F)(F)F)c1"
recorded_result = 0.776

[[record]]
chemical_string = "CN(C(=O)C(C)(C)c1cc(C(F)(F)F)cc(C(F)(F)F)c1)c1cnc(N2CC[C@H](O)[C@H]2CO)cc1-c1ccc(F)cc1"
recorded_result = 3.8

[[record]]
chemical_string = "CC(=O)NC[C@@H]1CCCN1c1cc(-c2ccc(F)cc2C)c(N(C)C(=O)C(C)(C)c2cc(C(F)(F)F)cc(C(F)(F)F)c2)cn1"
recorded_result = 20.4


* * *

- STUDY_TARGET: UniProtKB P25103
- TEST_NAME: NK1 receptor binding, [3H]substance P displacement, CHO cell membranes
- TEST_PARAMETERS: first value of the cell pKi NK1/NK3; human NK1 receptor, [3H]substance P
Readings of Ki for the listed compounds
QUANTITY_KIND: Ki

[[record]]
compound = "CC(=O)N1CCN(c2cc(-c3ccccc3Cl)c(N(C)C(=O)C(C)(C)c3cc(C(F)(F)F)cc(C(F)(F)F)c3)cn2)CC1"
study_target = "UniProtKB P25103"
recorded_result = "0.417 nM"

[[record]]
compound = "C[C@H](CO)Nc1cc(-c2ccccc2Cl)c(N(C)C(=O)C(C)(C)c2cc(C(F)(F)F)cc(C(F)(F)F)c2)cn1"
study_target = "UniProtKB P25103"
recorded_result = "1.26 nM"

[[record]]
compound = "Cc1cc(F)ccc1-c1cc(N2CCC[C@H]2C(C)(C)O)ncc1N(C)C(=O)C(C)(C)c1cc(C(F)(F)F)cc(C(F)(F)F)c1"
study_target = "UniProtKB P25103"
recorded_result = "1.78 nM"

[[record]]
compound = "Cc1cc(F)ccc1-c1cc(N(CCO)CCO)ncc1N(C)C(=O)C(C)(C)c1cc(C(F)(F)F)cc(C(F)(F)F)c1"
study_target = "UniProtKB P25103"
recorded_result = "3.39 nM"

[[record]]
compound = "CN(C(=O)C(C)(C)c1cc(C(F)(F)F)cc(C(F)(F)F)c1)c1cnc(N[C@H]2CCC[C@@H]2O)cc1-c1ccccc1Cl"
study_target = "UniProtKB P25103"
recorded_result = "0.49 nM"

[[record]]
compound = "CN(C(=O)C(C)(C)c1cc(C(F)(F)F)cc(C(F)(F)F)c1)c1cnc(N2CCC(CO)C2)cc1-c1ccccc1Cl (racemic)"
study_target = "UniProtKB P25103"
recorded_result = "3.72 nM"

[[record]]
compound = "Cc1ccccc1-c1cc(NC(CO)CO)ncc1N(C)C(=O)C(C)(C)c1cc(C(F)(F)F)cc(C(F)(F)F)c1"
study_target = "UniProtKB P25103"
recorded_result = "3.02 nM"

[[record]]
compound = "Cc1cc(F)ccc1-c1cc(N2CC[C@H](O)C2)ncc1N(C)C(=O)C(C)(C)c1cc(C(F)(F)F)cc(C(F)(F)F)c1"
study_target = "UniProtKB P25103"
recorded_result = "2.04 nM"

[[record]]
compound = "CN(C(=O)C(C)(C)c1cc(C(F)(F)F)cc(C(F)(F)F)c1)c1cnc(N2CC[C@H](O)[C@@H](CO)C2)cc1-c1ccccc1Cl (racemic)"
study_target = "UniProtKB P25103"
recorded_result = "1.45 nM"

[[record]]
compound = "CN(C(=O)C(C)(C)c1cc(C(F)(F)F)cc(C(F)(F)F)c1)c1cnc(N2CCC[C@H]2CN2CCCC2)cc1-c1ccccc1Cl"
study_target = "UniProtKB P25103"
recorded_result = "1 nM"

[[record]]
compound = "CN(C(=O)C(C)(C)c1cc(C(F)(F)F)cc(C(F)(F)F)c1)c1cnc(N2CCC[C@@H]2CO)cc1-c1ccc(Cl)c(Cl)c1"
study_target = "UniProtKB P25103"
recorded_result = "3.8 nM"

[[record]]
compound = "Cc1cc(F)ccc1-c1cc(N2CCC(S(C)(=O)=O)C2)ncc1N(C)C(=O)C(C)(C)c1cc(C(F)(F)F)cc(C(F)(F)F)c1 (racemic)"
study_target = "UniProtKB P25103"
recorded_result = "1.95 nM"

[[record]]
compound = "Cc1cc(F)ccc1-c1cc(NCCO)ncc1N(C)C(=O)C(C)(C)c1cc(Cl)cc(Cl)c1"
study_target = "UniProtKB P25103"
recorded_result = "1.29 nM"


* * *

Readings of Ki for the listed molecules
- STUDY_TARGET: Recombinant human NK3 (hNK3) receptor (Homo sapiens)
- Construct: expressed in transfected cells
- TEST_NAME: NK3 receptor binding, [3H]SR142801 displacement, membrane preparations
- TEST_PARAMETERS: second value of the cell NK1/NK3; read-out: pKi NK3 (converted)
QUANTITY_KIND: Ki (nM)

[[record]]
chemical_string = "CN(C(=O)C(C)(C)c1cc(C(F)(F)F)cc(C(F)(F)F)c1)c1cnc(N2C[C@H](O)C[C@H]2CO)cc1-c1ccc(F)c(F)c1"
study_target = "Recombinant human NK3 (hNK3) receptor (Homo sapiens)"
quantity_kind = "Ki"
recorded_result = 3.47

[[record]]
chemical_string = "Cc1ncccc1-c1cc(N2C[C@H](O)C[C@H]2CO)ncc1N(C)C(=O)C(C)(C)c1cc(C(F)(F)F)cc(C(F)(F)F)c1"
study_target = "Recombinant human NK3 (hNK3) receptor (Homo sapiens)"
quantity_kind = "Ki"
recorded_result = 3.89

[[record]]
chemical_string = "Cc1cc(F)ccc1-c1cc(N2CC(F)(F)C[C@H]2CO)ncc1N(C)C(=O)C(C)(C)c1cc(C(F)(F)F)cc(C(F)(F)F)c1"
study_target = "Recombinant human NK3 (hNK3) receptor (Homo sapiens)"
quantity_kind = "Ki"
recorded_result = 0.49

[[record]]
chemical_string = "CN(C(=O)C(C)(C)c1cc(C(F)(F)F)cc(C(F)(F)F)c1)c1cnc(N2C[C@@H](O)C[C@H]2CO)cc1-c1ccccc1Br"
study_target = "Recombinant human NK3 (hNK3) receptor (Homo sapiens)"
quantity_kind = "Ki"
recorded_result = 1.48

[[record]]
chemical_string = "CN(C(=O)C(C)(C)c1cc(C(F)(F)F)cc(C(F)(F)F)c1)c1cnc(N2C[C@H](O)C[C@H]2CO)cc1-c1ccccc1CO"
study_target = "Recombinant human NK3 (hNK3) receptor (Homo sapiens)"
quantity_kind = "Ki"
recorded_result = 2.57

[[record]]
chemical_string = "CN(C(=O)C(C)(C)c1cc(C(F)(F)F)cc(C(F)(F)F)c1)c1cnc(N2CC[C@H](O)[C@H]2CO)cc1-c1ccccc1C(F)(F)F"
study_target = "Recombinant human NK3 (hNK3) receptor (Homo sapiens)"
quantity_kind = "Ki"
recorded_result = 9.77

[[record]]
chemical_string = "CN(C(=O)C(C)(C)c1cc(C(F)(F)F)cc(C(F)(F)F)c1)c1cnc(N2CC[C@H](O)[C@H]2CO)cc1-c1ccccc1"
study_target = "Recombinant human NK3 (hNK3) receptor (Homo sapiens)"
quantity_kind = "Ki"
recorded_result = 4.9

[[record]]
chemical_string = "Cc1ccc(F)cc1-c1cc(N2C[C@H](O)C[C@H]2CO)ncc1N(C)C(=O)C(C)(C)c1cc(C(F)(F)F)cc(C(F)(F)F)c1"
study_target = "Recombinant human NK3 (hNK3) receptor (Homo sapiens)"
quantity_kind = "Ki"
recorded_result = 1.38

[[record]]
chemical_string = "Cc1cc(F)ccc1-c1cc(N2C[C@@H](O)C[C@@H]2CO)ncc1N(C)C(=O)C(C)(C)c1cc(C(F)(F)F)cc(C(F)(F)F)c1"
study_target = "Recombinant human NK3 (hNK3) receptor (Homo sapiens)"
quantity_kind = "Ki"
recorded_result = 15.1

[[record]]
chemical_string = "CN(C(=O)C(C)(C)c1cc(C(F)(F)F)cc(C(F)(F)F)c1)c1cnc(N2C[C@H](O)C[C@H]2CO)cc1-c1ccc(F)cc1C=O"
study_target = "Recombinant human NK3 (hNK3) receptor (Homo sapiens)"
quantity_kind = "Ki"
recorded_result = 1.02

[[record]]
chemical_string = "CN(C(=O)C(C)(C)c1cc(C(F)(F)F)cc(C(F)(F)F)c1)c1cnc(N2C[C@H](O)C[C@H]2CO)cc1-c1ccccc1C=O"
study_target = "Recombinant human NK3 (hNK3) receptor (Homo sapiens)"
quantity_kind = "Ki"
recorded_result = 1.51

[[record]]
chemical_string = "Cc1ncccc1-c1cc(N2CCC[C@H]2CO)ncc1N(C)C(=O)C(C)(C)c1cc(C(F)(F)F)cc(C(F)(F)F)c1"
study_target = "Recombinant human NK3 (hNK3) receptor (Homo sapiens)"
quantity_kind = "Ki"
recorded_result = 1.78

